Source of measurements: paper PMC12554172

B1: FLAG-tagged FBXO44 FBA domain (FBXO44^FBA) [human] / RGS2^5–16 peptide (RGS2 degron, Met^5–Met^16) [not stated] (parent complex)
chain 1: FYFLRSLHRNLLHNPCAEEGFEFWSLDVNGGDEWKVEDLSRDQRKEFPNDQVKKYFVTSYYTCLKSQVVDLKAEGYWEELMDTTRPDIEVKDWFAARPDCGSKYQLCVQLLSSAHAPLGTFQPDPATIQQKSDAKWREVSHTFSNYPPGVRYIWFQHGGVDTHYWAGWYGPRVTNSSITIGP
chain 2: MFLAVQHDCRPM

Variants of: B1
test-protocol: peptide microarray (PEPperPRINT), α-FLAG fluorescence; three independent experiments with three technical replicates each; parent: 100; read off a plot

seq-text: chain 2 MFLAVQNDCRPM [chain 2 H7N]
percent of parent: ~100 % Parent

seq-text: chain 2 MFLAVQYDCRPM [chain 2 H7Y]
percent of parent: ~110 % Parent

seq-text: chain 2 MFLAVQTDCRPM [chain 2 H7T]
percent of parent: ~95 % Parent

seq-text: chain 2 MFLAVQLDCRPM [chain 2 H7L]
percent of parent: ~100 % Parent

seq-text: chain 2 MFLAVQPDCRPM [chain 2 H7P]
percent of parent: ~110 % Parent

seq-text: chain 2 MFLAVQRDCRPM [chain 2 H7R]
percent of parent: ~140 % Parent

seq-text: chain 2 MFLAVQFDCRPM [chain 2 H7F]
percent of parent: ~100 % Parent

seq-text: chain 2 MFLAVQCDCRPM [chain 2 H7C]
percent of parent: ~120 % Parent

seq-text: chain 2 MFLAVQWDCRPM [chain 2 H7W]
percent of parent: ~110 % Parent

seq-text: chain 2 MFLAVQSDCRPM [chain 2 H7S]
percent of parent: ~100 % Parent

seq-text: chain 2 MFLAVQDDCRPM [chain 2 H7D]
percent of parent: ~100 % Parent

seq-text: chain 2 MFLAVQKDCRPM [chain 2 H7K]
percent of parent: ~120 % Parent

seq-text: chain 2 MFLAVQIDCRPM [chain 2 H7I]
percent of parent: ~100 % Parent

seq-text: chain 2 MFLAVQQDCRPM [chain 2 H7Q]
percent of parent: ~110 % Parent

seq-text: chain 2 MFLAVQVDCRPM [chain 2 H7V]
percent of parent: ~100 % Parent

seq-text: chain 2 MFLAVQMDCRPM [chain 2 H7M]
percent of parent: ~95 % Parent

seq-text: chain 2 MFLAVQGDCRPM [chain 2 H7G]
percent of parent: ~90 % Parent

seq-text: chain 2 MFLAVQADCRPM [chain 2 H7A]
percent of parent: ~95 % Parent

seq-text: chain 2 MFLAVQEDCRPM [chain 2 H7E]
percent of parent: ~95 % Parent
